Here's a batch of compounds along with measured pIC50 for Beta-secretase 1 (Homo sapiens, UniProt P56817).
Quick note: pIC50 means taking -log10 of the concentration in moles per liter.

INSERT INTO results (compound, measured_result) VALUES
  ('CN1C(=O)C(c2ccsc2)(c2ccc(F)c(-c3cccnc3F)c2)N=C1N (racemic)', 7.52),
  ('COc1cncc(-c2cccc(C3(c4ccsc4)N=C(N)N(C)C3=O)c2)c1 (racemic)', 7.40),
  ('CN1C(=O)C(c2ccsc2)(c2ccc(F)c(-c3cccnc3)c2)N=C1N (racemic)', 7.05),
  ('CCn1cc([C@]2(c3cccc(-c4cccnc4F)c3)N=C(N)N(C)C2=O)cn1', 8.00),
  ('CC(C)CCn1cc(C2(c3cccc(-c4cccnc4F)c3)N=C(N)N(C)C2=O)cn1 (racemic)', 7.80);

Summary: CCn1cc(C2(c3cccc(-c4cccnc4F)c3)N=C(N)N(C)C2=O)cn1 (racemic) , Beta-secretase 1 (Homo sapiens, UniProt P56817), pIC50 = 7.52

Summary: CN1C(=O)C(c2ccsc2)(c2cccc(-c3cnccn3)c2)N=C1N (racemic) , Beta-secretase 1 (Homo sapiens, UniProt P56817), pIC50 = 7.05

The measured pIC50 that CN1C(=O)C(c2cccc(-c3cccnc3F)c2)(c2cnn(CCC(C)(C)C)c2)N=C1N (racemic) showed for Beta-secretase 1 (Homo sapiens, UniProt P56817) is 7.70

* * *

- SYSTEM NAME: UniProtKB P07339
- Sequence (P07339 65-162 limits assumed): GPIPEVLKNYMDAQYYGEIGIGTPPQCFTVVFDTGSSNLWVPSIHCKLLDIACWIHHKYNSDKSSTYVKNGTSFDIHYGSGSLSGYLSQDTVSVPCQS
- Sequence (P07339 169-412 limits assumed): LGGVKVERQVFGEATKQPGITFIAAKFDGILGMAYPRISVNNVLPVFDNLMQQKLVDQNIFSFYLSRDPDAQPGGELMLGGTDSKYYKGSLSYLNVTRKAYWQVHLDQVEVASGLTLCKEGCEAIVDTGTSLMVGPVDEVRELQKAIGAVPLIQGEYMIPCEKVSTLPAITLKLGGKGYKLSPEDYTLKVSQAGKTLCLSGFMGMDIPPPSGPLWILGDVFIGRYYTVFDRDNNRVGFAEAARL
MEASURED METRIC: pIC50
# pIC50: negative log10 of molar concentration; output just the value

See these solved cases before continuing.
INSERT INTO results (compound, measured_result) VALUES
  ('CN1C(=O)C(c2cccc(-c3cccnc3F)c2)(c2cnn(C3CCCC3)c2)N=C1N (racemic)', 5.75),
  ('CC(C)Cn1cc(C2(c3cccc(-c4cncnc4)c3)N=C(N)N(C)C2=O)cn1 (racemic)', 4.95),
  ('CCc1cc(C2(c3cccc(-c4cncnc4)c3)N=C(N)N(C)C2=O)cs1 (racemic)', 4.62);

Lab note: compound CN1C(=O)C(c2cccc(-c3cncnc3)c2)(c2csc(Cl)c2)N=C1N (racemic) tested on UniProtKB P07339; recorded pIC50 was 4.52

Measured pIC50 for this entry CCn1cc(C2(c3cccc(-c4cccnc4F)c3)N=C(N)N(C)C2=O)cn1 (racemic) on UniProtKB P07339: 4.89

* * *

- SYSTEM NAME: Beta-secretase 2 (Homo sapiens)
- Sequence (Q9Y5Z0 whole entry): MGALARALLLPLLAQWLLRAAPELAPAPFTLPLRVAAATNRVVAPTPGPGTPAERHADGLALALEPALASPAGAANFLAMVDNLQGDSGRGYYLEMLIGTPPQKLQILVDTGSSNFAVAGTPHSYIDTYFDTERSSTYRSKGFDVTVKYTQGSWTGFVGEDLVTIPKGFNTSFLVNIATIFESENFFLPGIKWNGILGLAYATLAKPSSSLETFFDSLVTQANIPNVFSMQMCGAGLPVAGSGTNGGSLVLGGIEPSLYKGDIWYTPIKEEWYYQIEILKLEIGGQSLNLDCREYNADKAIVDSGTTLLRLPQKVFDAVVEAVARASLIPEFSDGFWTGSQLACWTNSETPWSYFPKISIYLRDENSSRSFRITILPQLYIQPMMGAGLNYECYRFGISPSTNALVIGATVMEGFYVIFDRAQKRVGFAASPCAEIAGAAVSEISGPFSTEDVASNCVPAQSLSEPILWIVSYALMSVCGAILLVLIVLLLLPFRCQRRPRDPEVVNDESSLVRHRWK
Recorded IC50 values for a group of molecules are listed next.
Lab book: enter the figure in nM, no units written.

So the reported IC50 for CCC(CC)Cn1cc(C2(c3cccc(-c4cccnc4F)c3)N=C(N)N(C)C2=O)cn1 (racemic) , on Beta-secretase 2 (Homo sapiens), turned out to be 36

Recorded IC50 for CCn1cc(C2(c3cccc(-c4cccnc4F)c3)N=C(N)N(C)C2=O)cn1 (racemic) on Beta-secretase 2 (Homo sapiens) was 450

CN1C(=O)C(c2ccsc2)(c2cccc(-c3cccnc3)c2)N=C1N (racemic) on Beta-secretase 2 (Homo sapiens) gives IC50 = 190

Record for CN1C(=O)[C@](c2cccc(-c3cccnc3F)c2)(c2cnn(CC(F)(F)F)c2)N=C1N under target or system Beta-secretase 2 (Homo sapiens): IC50 reported as 500

Measured IC50 for this entry CC(C)Cn1cc(C2(c3cccc(-c4cccnc4F)c3)N=C(N)N(C)C2=O)cn1 (racemic) on Beta-secretase 2 (Homo sapiens): 50

IC50 for Beta-secretase 2 (Homo sapiens) with input CN1C(=O)C(c2cccc(-c3cccnc3F)c2)(c2cnn(CCC(C)(C)C)c2)N=C1N (racemic) equals 20

Item: CCc1cc(C2(c3cccc(-c4cncnc4)c3)N=C(N)N(C)C2=O)cs1 (racemic) | System: Beta-secretase 2 (Homo sapiens) | IC50: 560
